test: H69AR cell viability reduction – human, 86K library, primary screen (AID 598); conditions: H69AR lung tumor viability, ATP luminescence, 72 h; at 10 µM;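 further: multidrug resistant small cell line overexpressing MRP-1 efflux transporter; 100% = mean luminescence of untreated control wells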
The campaign covered roughly 85,000 compounds. About 5,100 (6%) were called active.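 How the source made its calls: active means viability at or below 40%; inactive means viability above 40%.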 The list comes from a sample in which actives are over-represented; it also holds close analogues and randomly drawn compounds.
Returns: one label drawn from 1 (yes) (active), 0 (no) (inactive)

Solved cases below.
COc1cc(Cn2c(N)c(C(=O)NCc3ccco3)c3nc4ccccc4nc32)cc(OC)c1OC = 1 (yes)
CCC(=NCCc1ccccc1)c1c(O)n(C2CCCCC2)c(=O)[nH]c1=O = 1 (yes)
CCC(=NCc1ccco1)c1c(O)n(Cc2ccccc2)c(=O)[nH]c1=O = 0 (no)
COc1ccc(CCn2c(O)c(C=NCCCn3ccnc3)c(=O)[nH]c2=O)cc1OC = 0 (no)
CC(=O)c1c(O)n(C2CCCCCC2)c(=O)[nH]c1=O = 0 (no)
CCCCn1c(O)c(C(CC)=NCc2ccco2)c(=O)[nH]c1=O = 0 (no)
Cc1ccc(N(C)C(=O)Oc2cccc3ccc(C)nc23)cc1 = 0 (no)
Cn1c(O)c(C=NCCN2CCNCC2)c(=O)n(C)c1=O = 0 (no)

What did this assay record as the result for O=C(CCCn1c(=O)[nH]c2cc(Cl)ccc2c1=O)N1CCC2(CC1)OCCO2 ? 0 (no)

Now the same for CCN(N=Nc1nonc1OC)c1nonc1OC 0 (no)
